Reported pIC50 is given for each of the following molecules.
biological target: HCV polymerase 1A (Δ21 NS5B, H77) (Hepatitis C virus genotype 1a, UniProt P27958); construct: 20 to 50 nM Δ21 NS5B; assay: biochemical; conditions: IC50 1a
Sequence (P27958 2421-2990, stated change not applied): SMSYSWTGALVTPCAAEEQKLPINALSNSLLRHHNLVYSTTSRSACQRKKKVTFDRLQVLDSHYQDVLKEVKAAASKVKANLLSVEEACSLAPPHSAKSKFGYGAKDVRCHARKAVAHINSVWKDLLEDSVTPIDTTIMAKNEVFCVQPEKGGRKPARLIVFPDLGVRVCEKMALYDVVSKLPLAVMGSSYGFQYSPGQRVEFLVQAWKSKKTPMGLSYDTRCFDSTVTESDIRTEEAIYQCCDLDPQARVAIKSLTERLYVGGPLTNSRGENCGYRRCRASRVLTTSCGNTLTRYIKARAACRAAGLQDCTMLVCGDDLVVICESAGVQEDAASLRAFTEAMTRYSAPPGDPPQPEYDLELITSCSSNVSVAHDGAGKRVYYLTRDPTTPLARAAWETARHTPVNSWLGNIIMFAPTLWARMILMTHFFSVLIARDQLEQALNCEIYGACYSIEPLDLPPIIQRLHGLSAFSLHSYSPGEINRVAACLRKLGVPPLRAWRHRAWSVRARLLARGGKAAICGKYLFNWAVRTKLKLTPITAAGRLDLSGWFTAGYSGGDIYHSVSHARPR
pIC50: −log10 of the molar value.

Please review the following examples before continuing.
- molecule: "COc1c(-c2ccc3c(c2)CC=C3CNS(C)(=O)=O)cc(-n2ccc(=O)[nH]c2=O)cc1-c1ccco1"
  pIC50: "7.00 to 8.00"
- molecule: "COc1c(-c2ccc3c(c2)CCC3(F)CNS(C)(=O)=O)cc(-n2ccc(=O)[nH]c2=O)cc1C(C)(C)C (centres unmarked)"
  pIC50: "> 8.00"
- molecule: "CCC(=O)N(c1ccc(NC(=O)c2cc(N3CCC(=O)NC3=O)cc(C(C)(C)C)c2OC)cc1)S(C)(=O)=O"
  pIC50: "< 6.00"
- molecule: "COc1c(C(=O)Nc2cccc(CNS(C)(=O)=O)c2)cc(N2CCC(=O)NC2=O)cc1C(C)(C)C"
  pIC50: "6.00 to 7.00"
- molecule: "COc1c(C(=O)Nc2ccc(OCC#N)cc2)cc(N2CCC(=O)NC2=O)cc1C(C)(C)C"
  pIC50: "< 6.00"
- molecule: "CCN(Cc1cc(N2CCC(=O)NC2=O)cc(C(C)(C)C)c1O)C1CCCCC1 [IA-L9-1.1, 2,2,2-trifluoroacetate]"
  pIC50: "< 6.00"
- molecule: "COc1c(C#Cc2ccc(NS(C)(=O)=O)c(OC(F)(F)F)c2)cc(N2CCC(=O)NC2=O)cc1C(C)(C)C"
  pIC50: "7.00 to 8.00"
- molecule: "COc1c(C(=O)Nc2ccc(NS(=O)(=O)Cc3ccccc3)cc2)cc(N2CCC(=O)NC2=O)cc1C(C)(C)C"
  pIC50: "7.00 to 8.00"

Now examine the next entry.
Which pIC50 value is on record for CC(C)(C)c1cc(N2CCC(=O)NC2=O)cc(C(=O)Nc2cccc(NS(C)(=O)=O)c2)c1O ?
6.00 to 7.00
